Collected IC50 values appear next to each entry.
test system: phosphorylation of Chk1 (Ser 345) in HT29 colon adenocarcinoma cells; assay: pCHK1 cellular assay; type: cell-based; conditions: Homo sapiens, HT-29, hydroxyurea 3 mM, 4 h

Look over these answered cases.
1. Cc1ncncc1-c1cc(N2CCOC[C@H]2C)nc2c(-c3cc[nH]n3)nn(C)c12 [Compound 87]; 10 to 100 nM
2. CC(c1cc(N2CCOC[C@H]2C)nc2c(-c3cc[nH]n3)nn(C)c12)S(C)(=O)=O (some centres unmarked) [Compound 89]; 1000 to 10000 nM
3. C[C@@H]1COCCN1c1cc(-c2ccnn2CCF)c2c(n1)c(-c1cc[nH]n1)nn2C [Compound 36]; 10 to 100 nM

Query :: Fill in: IC50 of CC(C)Oc1cc(N2CCOC[C@H]2C)nc2c(-c3ccn[nH]3)nn(C)c12 [Compound 44] is ___
Result :: 100 to 1000 nM

Query :: Return reported IC50; argument: C[C@@H]1COCCN1c1cc(-c2ccn(CCO)n2)c2c(n1)c(-c1cc[nH]n1)nn2C [Compound 37]
Result :: 100 to 1000 nM

Query :: Reported IC50 for C[C@@H]1COCCN1c1cc(C(=O)N(C)C)c2c(n1)c(-c1cc[nH]n1)nn2C [Compound 30] : what is it?
Result :: 100 to 1000 nM

Query :: Need IC50 of C[C@@H]1COCCN1c1cc(C2CCOCC2)c2c(n1)c(-c1ccn[nH]1)nn2C [Compound 55] , thanks.
Result :: 10 to 100 nM

Query :: Which IC50 reading was recorded for the compound C[C@@H]1COCCN1c1cc(-c2ccc([S+](C)[O-])cc2)c2c(n1)c(-c1cc[nH]n1)nn2C (some centres unmarked) [Compound 5] ?
Result :: 10 to 100 nM

---

system: phosphorylation of Chk1 (Ser 345) in HT29 colon adenocarcinoma cells; test: pCHK1 cellular assay; assay type: cell-based; conditions: Homo sapiens, HT-29, hydroxyurea 3 mM, 4 h
recorded_metric: IC50

Here's what some known entries look like.
1. C[C@@H]1COCCN1c1cc(-c2cncn2C)c2c(n1)c(-c1cc[nH]n1)nn2C; < 10 nM
2. Cc1ncccc1-c1cc(N2CCOC[C@H]2C)nc2c(-c3cc[nH]n3)nn(C)c12; 10 to 100 nM
3. C[C@@H]1COCCN1c1ccc2c(n1)c(-c1cc[nH]n1)nn2Cc1ccccn1; 1000 to 10000 nM

Consider now this further compound.
Query :: What IC50 value was documented for this compound, `Cc1ccccc1-c1cc(N2CCOC[C@H]2C)nc2c(-c3cc[nH]n3)n[nH]c12` ?
Result :: 10 to 100 nM

---

biological target: ATR/ATRIP (Homo sapiens (Human), UniProt Q13535); assay: ATR/ATRIP kinase assay (TR-FRET, p53 Ser15 phosphorylation); details: 0.5 μM ATP, 50 nM p53
Sequence (Q13535 whole entry): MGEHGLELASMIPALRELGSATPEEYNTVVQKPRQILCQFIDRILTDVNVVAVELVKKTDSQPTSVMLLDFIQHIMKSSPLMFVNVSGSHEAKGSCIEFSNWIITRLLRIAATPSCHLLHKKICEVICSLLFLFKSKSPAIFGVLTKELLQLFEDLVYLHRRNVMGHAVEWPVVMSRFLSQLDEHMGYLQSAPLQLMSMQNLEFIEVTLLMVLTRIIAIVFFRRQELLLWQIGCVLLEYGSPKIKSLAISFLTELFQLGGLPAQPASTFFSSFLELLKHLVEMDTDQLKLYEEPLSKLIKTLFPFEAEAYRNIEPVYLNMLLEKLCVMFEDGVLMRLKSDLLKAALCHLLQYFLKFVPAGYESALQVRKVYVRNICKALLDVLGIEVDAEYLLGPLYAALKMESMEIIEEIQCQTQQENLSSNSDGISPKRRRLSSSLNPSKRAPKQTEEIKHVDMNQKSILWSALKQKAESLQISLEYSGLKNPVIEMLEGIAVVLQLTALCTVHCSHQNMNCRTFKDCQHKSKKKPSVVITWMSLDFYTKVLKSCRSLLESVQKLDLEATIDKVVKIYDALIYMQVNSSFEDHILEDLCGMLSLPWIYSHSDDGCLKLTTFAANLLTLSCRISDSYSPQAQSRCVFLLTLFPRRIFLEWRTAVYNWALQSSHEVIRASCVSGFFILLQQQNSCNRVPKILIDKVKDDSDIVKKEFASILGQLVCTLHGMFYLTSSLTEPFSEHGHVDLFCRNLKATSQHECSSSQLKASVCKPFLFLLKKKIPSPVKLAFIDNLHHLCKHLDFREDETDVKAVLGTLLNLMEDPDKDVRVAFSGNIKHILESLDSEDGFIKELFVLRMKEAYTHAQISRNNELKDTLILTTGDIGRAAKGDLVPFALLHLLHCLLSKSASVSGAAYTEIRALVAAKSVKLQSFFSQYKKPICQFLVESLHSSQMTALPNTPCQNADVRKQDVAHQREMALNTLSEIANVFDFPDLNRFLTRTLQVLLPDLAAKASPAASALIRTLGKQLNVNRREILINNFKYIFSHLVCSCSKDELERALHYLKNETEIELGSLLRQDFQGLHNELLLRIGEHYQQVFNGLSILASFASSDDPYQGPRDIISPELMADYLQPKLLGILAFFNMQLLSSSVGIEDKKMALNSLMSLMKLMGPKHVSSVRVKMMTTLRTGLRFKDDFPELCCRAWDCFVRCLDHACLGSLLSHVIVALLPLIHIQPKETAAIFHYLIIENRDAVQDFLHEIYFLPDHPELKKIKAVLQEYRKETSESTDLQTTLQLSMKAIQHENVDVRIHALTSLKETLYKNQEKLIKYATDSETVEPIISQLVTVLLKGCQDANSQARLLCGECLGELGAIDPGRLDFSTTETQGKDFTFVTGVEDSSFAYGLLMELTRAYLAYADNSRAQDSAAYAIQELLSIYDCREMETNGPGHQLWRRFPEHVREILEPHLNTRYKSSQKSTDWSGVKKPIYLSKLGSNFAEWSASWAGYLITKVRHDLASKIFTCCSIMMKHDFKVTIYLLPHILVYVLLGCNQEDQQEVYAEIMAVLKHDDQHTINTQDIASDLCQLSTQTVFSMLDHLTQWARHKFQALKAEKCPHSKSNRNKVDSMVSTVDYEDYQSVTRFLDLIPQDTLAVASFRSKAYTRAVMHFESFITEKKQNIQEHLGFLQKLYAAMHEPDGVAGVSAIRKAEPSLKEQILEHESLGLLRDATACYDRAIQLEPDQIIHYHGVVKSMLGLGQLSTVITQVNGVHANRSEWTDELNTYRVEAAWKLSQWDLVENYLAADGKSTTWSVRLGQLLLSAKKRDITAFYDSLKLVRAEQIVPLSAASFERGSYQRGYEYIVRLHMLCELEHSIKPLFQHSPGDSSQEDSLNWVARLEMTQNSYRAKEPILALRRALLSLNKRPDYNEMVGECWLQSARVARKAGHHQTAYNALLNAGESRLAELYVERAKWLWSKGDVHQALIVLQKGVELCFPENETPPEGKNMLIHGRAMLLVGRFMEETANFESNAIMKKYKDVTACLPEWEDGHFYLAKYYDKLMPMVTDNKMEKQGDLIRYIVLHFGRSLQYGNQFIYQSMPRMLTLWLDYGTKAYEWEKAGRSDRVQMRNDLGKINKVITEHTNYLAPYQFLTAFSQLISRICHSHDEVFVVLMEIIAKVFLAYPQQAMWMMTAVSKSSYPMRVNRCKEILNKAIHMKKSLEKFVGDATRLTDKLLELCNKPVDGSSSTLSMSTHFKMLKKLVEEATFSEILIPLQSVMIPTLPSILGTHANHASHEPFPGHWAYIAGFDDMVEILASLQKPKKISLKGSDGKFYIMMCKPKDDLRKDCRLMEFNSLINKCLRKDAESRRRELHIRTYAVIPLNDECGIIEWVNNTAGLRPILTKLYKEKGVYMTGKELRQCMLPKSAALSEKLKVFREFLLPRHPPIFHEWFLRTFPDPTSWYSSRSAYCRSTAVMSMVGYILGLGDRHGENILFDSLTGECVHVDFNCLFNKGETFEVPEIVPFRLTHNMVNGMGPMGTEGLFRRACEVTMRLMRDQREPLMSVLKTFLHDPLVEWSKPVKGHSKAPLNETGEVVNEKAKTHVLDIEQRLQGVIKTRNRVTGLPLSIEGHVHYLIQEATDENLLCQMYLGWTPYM
Sequence (Q8WXE1 whole entry partner): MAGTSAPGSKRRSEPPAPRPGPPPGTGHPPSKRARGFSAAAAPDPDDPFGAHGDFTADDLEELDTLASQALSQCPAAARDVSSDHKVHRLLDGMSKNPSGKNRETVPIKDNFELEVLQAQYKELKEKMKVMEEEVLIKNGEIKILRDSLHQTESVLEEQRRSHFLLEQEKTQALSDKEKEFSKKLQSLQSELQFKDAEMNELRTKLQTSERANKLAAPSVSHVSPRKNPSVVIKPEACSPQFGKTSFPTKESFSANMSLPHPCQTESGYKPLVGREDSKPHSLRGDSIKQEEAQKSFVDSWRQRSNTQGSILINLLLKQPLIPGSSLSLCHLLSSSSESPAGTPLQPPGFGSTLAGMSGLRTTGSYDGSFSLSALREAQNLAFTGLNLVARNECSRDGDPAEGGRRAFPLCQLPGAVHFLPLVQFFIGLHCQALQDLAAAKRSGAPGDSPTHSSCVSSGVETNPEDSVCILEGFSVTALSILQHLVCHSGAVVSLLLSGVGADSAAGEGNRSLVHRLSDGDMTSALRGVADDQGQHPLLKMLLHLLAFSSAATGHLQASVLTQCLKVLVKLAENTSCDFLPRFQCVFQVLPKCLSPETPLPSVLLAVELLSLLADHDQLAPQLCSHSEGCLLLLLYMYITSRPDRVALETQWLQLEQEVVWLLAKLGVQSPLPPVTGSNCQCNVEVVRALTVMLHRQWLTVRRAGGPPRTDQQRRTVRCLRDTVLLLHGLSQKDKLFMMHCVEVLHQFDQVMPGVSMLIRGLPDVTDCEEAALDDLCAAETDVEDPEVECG
recorded_metric: IC50

Please review the following examples before continuing.
1) Cc1nc(S(C)(=O)=O)ccc1-c1cc(N2CCOC[C@H]2C)nc2c(-c3cc[nH]n3)n[nH]c12; 0.8 nM
2) Cc1ccc(-c2cc(N3CCOC[C@H]3C)nc3c(-c4cc[nH]n4)n[nH]c23)cn1; 0.8 nM
3) C[C@@H]1COCCN1c1cc(-c2ccnc3[nH]ccc23)c2c(n1)c(-c1cc[nH]n1)nn2C; 0.6 nM

// next item, IC50 requested
Query :: Name the reported IC50 value associated with the compound `Cc1ccc(-c2cc(N3CCOC[C@H]3C)nc3c(-c4cc(C)n[nH]4)n[nH]c23)cn1`
Result :: 0.9 nM
